Tested on: B7-supertype molecules (B*0702, B*3501, B*5101, B*5301, B*5401)
Test name: B7-supertype cross-reactive binding
Parameters: species or system human
Recorded conditions: of five B7-supertype alleles tested
Where a SMILES comes first, the peptide text is derived from it.
For each entry below, report its No. of B7 Alleles Crossbound value.
Lab note: record just the number, no unit beside it.

May I ask what No. of B7 Alleles Crossbound has been recorded for CC[C@H](C)[C@H](NC(=O)[C@H](CO)NC(=O)[C@@H](NC(=O)[C@H](CC(C)C)NC(=O)[C@@H]1CCCN1C(=O)[C@@H](N)CO)[C@@H](C)O)C(=O)N[C@H](C(=O)N[C@@H](CO)C(=O)N[C@@H](C)C(=O)N[C@H](C(=O)O)C(C)C)[C@@H](C)CC [Her2/neu.649] ? 1

Continue with CC[C@H](C)[C@H](NC(=O)[C@H](CC(=O)O)NC(=O)[C@@H]1CCCN1C(=O)[C@H](CC(C)C)NC(=O)[C@H](CO)NC(=O)[C@H](CC(=O)O)NC(=O)[C@@H]1CCCN1C(=O)[C@@H](N)Cc1c[nH]c2ccccc12)C(=O)O [Her2/neu.415.I8] 1

Continue with CC[C@H](C)[C@H](NC(=O)[C@H](CCC(=O)O)NC(=O)[C@H](CCCNC(=N)N)NC(=O)[C@H](C)NC(=O)[C@@H]1CCCN1C(=O)[C@@H](NC(=O)CNC(=O)[C@H](CC(=O)O)NC(=O)[C@H](Cc1ccc(O)cc1)NC(=O)[C@@H]1CCCN1C(=O)[C@@H](N)Cc1ccccc1)[C@@H](C)CC)C(=O)O [Her2/neu.921.F1I11] 4

Continue with CC[C@H](C)[C@H](NC(=O)[C@@H](NC(=O)[C@@H](NC(=O)[C@H](CCC(=O)O)NC(=O)[C@H](CCC(N)=O)NC(=O)[C@H](CC(N)=O)NC(=O)[C@H](Cc1c[nH]cn1)NC(=O)[C@H](CC(C)C)NC(=O)[C@@H]1CCCN1C(=O)[C@@H](N)CS)C(C)C)[C@@H](C)O)C(=O)O [Her2/neu.315.I10] 3

Continue with CC[C@H](C)[C@H](NC(=O)[C@H](CO)NC(=O)[C@H](CC(C)C)NC(=O)[C@H](CC(=O)O)NC(=O)[C@@H]1CCCN1C(=O)[C@H](CCCCN)NC(=O)[C@@H](NC(=O)CNC(=O)[C@H](CO)NC(=O)[C@@H]1CCCN1C(=O)[C@@H](N)Cc1ccccc1)C(C)C)C(=O)O [Her2/neu.600.F1I11] 4

Continue with CC[C@H](C)[C@H](NC(=O)[C@@H](NC(=O)[C@H](Cc1ccc(O)cc1)NC(=O)[C@H](CCCNC(=N)N)NC(=O)CNC(=O)[C@H](CCC(=O)O)NC(=O)[C@@H]1CCCN1C(=O)[C@H](CC(N)=O)NC(=O)[C@@H]1CCCN1C(=O)[C@@H](N)CCSC)[C@@H](C)O)C(=O)O [Her2/neu.282.I10] 5

Continue with CC[C@H](C)[C@H](NC(=O)[C@@H](NC(=O)[C@H](CS)NC(=O)[C@@H](NC(=O)[C@@H]1CCCN1C(=O)[C@@H]1CCCN1C(=O)[C@H](CCC(N)=O)NC(=O)[C@@H]1CCCN1C(=O)[C@@H](N)Cc1ccccc1)[C@@H](C)CC)[C@@H](C)O)C(=O)O [Her2/neu.941.F1] 5

Continue with CC[C@H](C)[C@H](NC(=O)CNC(=O)[C@H](C)NC(=O)[C@@H]1CCCN1C(=O)[C@H](CCCNC(=N)N)NC(=O)[C@H](C)NC(=O)[C@H](C)NC(=O)[C@@H]1CCCN1C(=O)[C@@H](N)Cc1ccccc1)C(=O)O [Her2/neu.1157.F1I9] 3

Continue with CC(C)C[C@H](NC(=O)[C@@H](NC(=O)[C@H](C)NC(=O)CNC(=O)[C@H](C)NC(=O)[C@@H]1CCCN1C(=O)[C@H](CCCNC(=N)N)NC(=O)[C@H](C)NC(=O)[C@H](C)NC(=O)[C@@H]1CCCN1C(=O)[C@@H](N)Cc1ccccc1)[C@@H](C)O)C(=O)O [Her2/neu.1157.F1] 4

Continue with CC[C@H](C)[C@H](NC(=O)[C@H](CO)NC(=O)[C@@H](NC(=O)[C@@H](NC(=O)[C@H](CO)NC(=O)[C@@H](NC(=O)[C@H](CC(C)C)NC(=O)[C@@H]1CCCN1C(=O)[C@@H](N)Cc1ccccc1)[C@@H](C)O)[C@@H](C)CC)[C@@H](C)CC)C(=O)O [Her2/neu.649.F1I9] 5

Continue with CC[C@H](C)[C@H](NC(=O)[C@@H]1CCCN1C(=O)[C@H](CC(C)C)NC(=O)[C@@H]1CCCN1C(=O)CNC(=O)[C@H](CCC(=O)O)NC(=O)[C@H](CCCNC(=N)N)NC(=O)[C@@H]1CCCN1C(=O)[C@H](CO)NC(=O)[C@@H]1CCCN1C(=O)[C@@H](N)Cc1ccccc1)C(=O)O [Her2/neu.1149.F1I11] 3

Continue with CC[C@H](C)[C@H](NC(=O)[C@H](C)NC(=O)[C@H](CO)NC(=O)[C@@H](NC(=O)[C@@H](NC(=O)[C@H](CO)NC(=O)[C@@H](NC(=O)[C@H](CC(C)C)NC(=O)[C@@H]1CCCN1C(=O)[C@@H](N)Cc1ccccc1)[C@@H](C)O)[C@@H](C)CC)[C@@H](C)CC)C(=O)O [Her2/neu.649.F1I10] 5

Continue with CC(C)C[C@H](NC(=O)[C@@H]1CCCN1C(=O)[C@H](CO)NC(=O)[C@@H]1CCCN1C(=O)[C@H](CC(=O)O)NC(=O)[C@H](Cc1c[nH]cn1)NC(=O)[C@@H](NC(=O)[C@@H]1CCCN1C(=O)[C@@H](N)Cc1ccccc1)[C@@H](C)O)C(=O)O [Her2/neu.1101.F1] 3

Continue with CC[C@H](C)[C@H](NC(=O)[C@H](CS)NC(=O)[C@H](CCCNC(=N)N)NC(=O)[C@H](CO)NC(=O)CNC(=O)[C@H](CCCCN)NC(=O)[C@H](CS)NC(=O)[C@H](CCSC)NC(=O)[C@@H]1CCCN1C(=O)[C@@H](N)Cc1ccccc1)C(=O)O [Her2/neu.196.F1] (H-FPMCKGSRCI-OH; N-terminus and C-terminus assumed) 3

Continue with CC[C@H](C)[C@H](NC(=O)[C@H](CO)NC(=O)[C@H](CCCNC(=N)N)NC(=O)[C@H](Cc1ccc(O)cc1)NC(=O)[C@H](Cc1ccccc1)NC(=O)[C@@H](NC(=O)[C@H](CO)NC(=O)[C@H](CC(=O)O)NC(=O)[C@H](CC(C)C)NC(=O)[C@@H]1CCCN1C(=O)[C@@H](N)Cc1ccccc1)[C@@H](C)O)C(=O)O [Her2/neu.998.F1I11] 3
